# Test system: MONO-MAC-6;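 also: cell viability assay measuring growth inhibition of human MONO-MAC-6 cells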
# Test Method Notes: cells
# Assay type: functional, cell-based
# Condition Description: Homo sapiens
# Description: SANGER: Inhibition of human MONO-MAC-6 cell growth in a cell viability assay.
Value Type: pIC50
Quick note: pIC50 means taking -log10 of the concentration in moles per liter.

For this molecule ( COc1cc(C)c(Sc2cnc(NC(=O)c3ccc(CNC(C)C(C)(C)C)cc3)s2)cc1C(=O)N1CCN(C(C)=O)CC1 (stereo not drawn) ), measured pIC50 is 5.18

For this molecule ( CO[C@@]12[C@H](COC(N)=O)C3=C(C(=O)C(C)=C(N)C3=O)N1C[C@@H]1N[C@@H]12 [MITOMYCIN] ), measured pIC50 is 7.14
